System: K-562 leukemia
Test: NCI-60 one-dose screen, 48 h (100 = growth as untreated, 0 = no growth, -100 = all killed)
Details: 10 µM unless noted
Compounds without any hit were thinned out: in the full panel of roughly 83,000, 20% have a hit.
Is growth at least 90%? Then Satisfied. If not, Not satisfied.

{"columns": ["COMPOUND", "CLASS_LABEL"],
 "data": [
  ["CC(C)(O)CC(=O)NCCn1ccc2ncnc(Nc3ccc(Oc4cccc(C(F)(F)F)c4)c(Cl)c3)c21", "Not satisfied"],
  ["N#CC(C#N)=NO", "Satisfied"],
  ["C=CC(=O)N(C)[C@H]1C[C@H]2OC(C)(C1OC)n1c3ccccc3c3c4c(c5c6ccccc6n2c5c31)C(=O)NC4 (stereo not given in full)", "Not satisfied"]
]}

###

Listing: growth of selected compounds
Test system: PC-3 prostate
Test: NCI-60 one-dose screen, 48 h (100 = growth as untreated, 0 = no growth, -100 = all killed)
Conditions: 10 µM unless noted
The panel holds about 83,000 compounds, 20% with a hit somewhere; the sample as a whole holds those more often. Active and inactive are the calls of the source. The calls were made as follows: active = growth percent below 10; inactive = the rest.
PROPERTY_LABEL: growth

{"columns": ["COMPOUND", "MEAS_VALUE"],
 "data": [
  ["CCCCCCCC(=O)SCC/C=C/[C@@H]1CC(=O)NCc2cc(ccn2)C2=N[C@@](C)(CS2)C(=O)N[C@@H](C(C)C)C(=O)O1", "16.4% (inactive)"],
  ["COc1cccc2cc(-c3nc(C4CCC(C(=O)O)CC4)n4ncnc(N)c34)[nH]c12 (stereo not given)", "13.3% (inactive)"],
  ["O=C1/C(=C\\c2cccc(OCCCCCOc3ccc(Cl)cc3)c2)N=C2SCCCN12", "28.8% (inactive)"],
  ["CNC(=O)c1cc(Oc2cccc3nc(Nc4ccc(Cl)c(F)c4)ccc23)ccn1", "66.1% (inactive)"],
  ["C=CC(=O)N1CCC(Oc2cc3c(Nc4ccc(Cl)c(Cl)c4F)ncnc3cc2OC)CC1", "14.2% (inactive)"],
  ["COC[C@@H](C)n1c(C2CCOCC2)nc2c1C1C=C(OC)C(c3c(C)noc3C)=CC1N=C2 (stereo not given in full)", "38.2% (inactive)"],
  ["CO/C=C/C(=O)c1cc2cnc3c(=N)cc(NC(=O)C(C)C)c([nH]1)c23", "-21.6% (active)"],
  ["CN1CCN(CCCOc2cccc3nc(Nc4ccc(Cl)c(C(F)(F)F)c4)ccc23)CC1", "14.6% (inactive)"],
  ["Cc1cc2c(F)c(Oc3ncnn4cc(OC[C@@H](C)OC(=O)[C@H](C)N)c(C)c34)ccc2[nH]1", "54.5% (inactive)"],
  ["CC(C)(O)CC(=O)NCCn1ccc2ncnc(Nc3ccc(Oc4cccc(C(F)(F)F)c4)c(Cl)c3)c21", "1.54% (active)"]
]}

###

Tested on: HS 578T breast
Assay: NCI-60 one-dose screen, 48 h
Settings: 10 µM
Experimental: Growth inhibition of the HS 578T human tumor cell line is measured as a screen for anti-cancer activity. Cells are grown in 96 well plates and exposed to the test compound for 48 hours. Compounds are tested at a single concentration, which is 10^-5 M for most compounds. The reported endpoint is percent growth (GI% or GIPRCNT), where numbers from 0 - 100% represent growth inhibition, and numbers from -100% - 0 represent cell death. For example, a value of 40 represents 60% growth inhibition. […]
About 83,000 compounds went through this panel and 20% of them were active in at least one assay; those are over-represented in the sample as a whole. Activity calls are given as the source filed them. Rule for the calls: active = growth percent below 10; inactive = the rest.
Possible outcomes: y (active), n (inactive)

{"columns": ["MOLECULE", "CLASS_LABEL"],
 "data": [
  ["CC(CCCC(=O)O)c1ccoc1 (centres undefined)", "n"],
  ["COC(=O)c1[nH]cnc1/N=N/N(C)CCO", "y"],
  ["Cc1ccc2oc(=O)cc(-c3cc(-c4cc5ccccc5oc4=O)nc(N)c3C#N)c2c1", "n"],
  ["CC(C)[C@@H]1CC[C@]2(CO2)[C@@H]2C(=O)OCC(C(=O)O)=C[C@H]21", "y"]
]}

###

Test system: M14 melanoma
Test: NCI-60 one-dose screen, 48 h
Conditions: 10 µM unless noted
Compounds without any hit were thinned out: in the full panel of roughly 83,000, 20% have a hit. The source made the active and inactive calls. How the source made its calls: active means growth percent below 10; inactive means the rest.
Possible outcomes: TRUE for active, FALSE for inactive

{"columns": ["COMPOUND", "CLASS_LABEL"],
 "data": [
  ["O=C(NO)c1ccc(Cn2c(=O)n(CCc3ccccc3)c(=O)c3ccccc32)cc1", "FALSE"],
  ["C[C@@]1(C(=O)Nc2ccc(F)nc2)CCCN1c1nc(Nc2cc(C3CC3)[nH]n2)c2cccn2n1", "FALSE"],
  ["CCN(CC)c1cc2oc3cc(N)cc(=N)c-3nc2cc1C", "FALSE"],
  ["CC(=O)OC(C(=O)c1ccccc1)c1ccccc1 (stereo unspecified)", "FALSE"],
  ["COC(=O)[C@]12CC[C@@H](C)[C@H](C)[C@@H]1C1=CC[C@@H]3[C@@]4(C)C(c5cnco5)=C[C@@](C)(CO)C4=CC[C@@]3(C)[C@]1(C)CC2", "FALSE"],
  ["C/C(=N\\NC(=O)Cn1c(-c2ccc(S(C)(=O)=O)cc2)nc2ccccc21)c1ccc(Cl)cc1", "FALSE"],
  ["COc1ccc2nc3cc(Cl)ccc3c(Nc3ccc(N(C)C)cc3)c2c1", "FALSE"],
  ["CCN(CCCOc1ccc2c(Nc3cc(CC(=O)Nc4cccc(F)c4)[nH]n3)ncnc2c1)CCOP(=O)(O)O", "FALSE"],
  ["Cn1ccnc1C(=O)/C=C/c1ccc(CC(=O)Nc2ccc(S(F)(F)(F)(F)F)cc2)cc1", "TRUE"],
  ["O=C1C=CC2(NN=C(c3ccccc3)N2c2ccccc2)c2cccc(O)c21 (stereo unspecified)", "TRUE"],
  ["CNC(=O)CN1CCC(Oc2cc3c(Nc4cccc(Cl)c4F)ncnc3cc2OC)CC1", "FALSE"],
  ["CS(=O)(=O)N1CCN(Cc2cc3nc(-c4cccc5[nH]ncc45)nc(N4CCOCC4)c3s2)CC1", "FALSE"],
  ["CCN(CC)CCCC(C)Nc1cc(-c2ccc(C(F)(F)F)cc2)c(C#N)c2nc3ccccc3n12 (stereo unspecified)", "TRUE"],
  ["O=C(NOCCO)c1ccc2cncn2c1Nc1ccc(I)cc1F", "TRUE"],
  ["COc1cc(NC2CCC(=O)N2c2ccc(Cl)cc2Cl)cc(OC)c1OC (stereo unspecified)", "FALSE"],
  ["CC1(COc2ccc3c(c2)ncn3-c2ccc3cccc(N4CCC(N)CC4)c3n2)COC1", "TRUE"]
]}

###

growth: recorded values
System: U251 CNS
Experiment: NCI-60 one-dose screen, 48 h (100 = growth as untreated, 0 = no growth, -100 = all killed)
Conditions: 10 µM unless noted
Compounds without any hit were thinned out: in the full panel of roughly 83,000, 20% have a hit. Active and inactive are the calls of the source. The calls were made as follows: active = growth percent below 10; inactive = the rest.
PROPERTY_LABEL: growth

{"columns": ["MOLECULE", "MEAS_VALUE"],
 "data": [
  ["C[C@@H](Oc1cc(-n2cnc3ccc(CN4CCN(C)CC4)cc32)sc1C(N)=O)c1ccccc1C(F)(F)F", "29.1% (inactive)"],
  ["CCS(=O)(=O)N1CCN(c2ccc(Nc3ncc(C(N)=O)c(NC4CC4)n3)cc2)CC1", "93.4% (inactive)"],
  ["Cc1cc2c3c(cccc3c1)C(=O)c1ccccc1-2", "98.8% (inactive)"],
  ["COc1ccc2c(OCc3nnc4ccc(-c5ccccc5)nn34)ccnc2c1", "110% [2.5 µM] (inactive)"],
  ["CN1CCN(c2ccc(OC(F)(F)F)c(Nc3ncc4c(n3)-c3c(c(C(N)=O)nn3CCO)CC4)c2)CC1", "25.4% (inactive)"],
  ["COc1cnc2c(c1)C(=O)c1c-2n(CCCN2CCC(N)CC2)c(=O)c2cc([N+](=O)[O-])ccc12", "39.4% (inactive)"],
  ["CC/C(=C(/c1ccc(Cl)cc1)c1ccc(OCCN2CCCCC2)cc1)c1ccc(Cl)cc1", "62.3% (inactive)"],
  ["CN(N)c1nc2sc3c(c2c(=O)[nH]1)CCCC3", "92.1% (inactive)"],
  ["COc1cnc2c(c1)C(=O)c1c-2n(CCCN2CCC(O)CC2)c(=O)c2cc(Cl)ccc12", "-76.7% (active)"],
  ["CC(=O)NCC(=O)N1[C@@H]2CC[C@H]1c1ccc(Nc3ncc(C(F)(F)F)c(NC4CCC4)n3)cc12", "56.2% [2.5 µM] (inactive)"],
  ["CC(C)[C@@H]1CC[C@]2(CO2)[C@@H]2C(=O)OCC(C(=O)O)=C[C@H]21", "1.81% (active)"],
  ["COc1ncc(-c2ccc3nccc(-c4ccnnc4)c3c2)cc1NS(=O)(=O)c1ccc(F)cc1F", "-62.3% (active)"],
  ["CC(=O)c1cnc2ccc(-c3cc(Cl)c(O)c(Cl)c3)nc2c1NC1CCC(CN(C)C)CC1 (stereo unspecified)", "-26.6% [2.5 µM] (active)"],
  ["Clc1nc(Cl)c2ncn(C/C=C\\Cn3cnc4c(Cl)nc(Cl)nc43)c2n1", "-56.5% (active)"],
  ["NC(=O)c1c(OCc2c(F)cc(Br)cc2F)nsc1NC(=O)NCCCCN1CCCC1", "-83.3% (active)"],
  ["Cc1cc(O)cc(-c2c(-c3ccnc(-c4cccnc4)c3)cnn2C)c1", "69.3% (inactive)"]
]}

Values from PubChem BioAssay (NCI)
